Measured values drawn from the supplement of paper PMC5908809 for this set.

test system: normal primary NK cells, pool 3 (3 donors) (IL-2 2.5 ng/mL); test: percent inhibition of viability; higher = more inhibition; details: 72 h; 10 nM
Collected percent inhibition of viability values appear next to each entry.

| molecule | experimental_target | uom | percent inhibition of viability |
| --- | --- | --- | --- |
| C=CC(=O)Nc1cc2c(Nc3ccc(F)c(Cl)c3)ncnc2cc1OCCCN1CCOCC1 [Canertinib] (max concentration tested 10000 nM) | normal primary NK cells, pool 3 (3 donors) (IL-2 2.5 ng/mL) | % | 1.46 |
| O=NN(CCCl)C(=O)NCCCl [Carmustine] (max concentration tested 10000 nM) | normal primary NK cells, pool 3 (3 donors) (IL-2 2.5 ng/mL) | % | 5.49 |
| Cn1c(=O)c(F)c(Nc2ccc(I)cc2F)c2c(=O)n(C[C@@H](O)CO)cnc21 [TAK-733] (max concentration tested 1000 nM) | normal primary NK cells, pool 3 (3 donors) (IL-2 2.5 ng/mL) | % | -11.3 |
| CN(c1ncccc1CNc1nc(Nc2ccc3c(c2)CC(=O)N3)ncc1C(F)(F)F)S(C)(=O)=O (max concentration tested 10000 nM) | normal primary NK cells, pool 3 (3 donors) (IL-2 2.5 ng/mL) | % | -6.19 |
| O=C(O)c1ccc(O)c2ncccc12 [IOX-1] (max concentration tested 100000 nM) | normal primary NK cells, pool 3 (3 donors) (IL-2 2.5 ng/mL) | % | -7.55 |
| COC(=O)c1ccc2c(c1)NC(=O)/C2=C(\Nc1ccc(N(C)C(=O)CN2CCN(C)CC2)cc1)c1ccccc1 [Nintedanib] (max concentration tested 10000 nM) | normal primary NK cells, pool 3 (3 donors) (IL-2 2.5 ng/mL) | % | -18.2 |
| O=C(Nc1cccc(Cl)c1)Nc1ncc(CCNc2ncnc3ccsc23)s1 [SNS-314] (max concentration tested 1000 nM) | normal primary NK cells, pool 3 (3 donors) (IL-2 2.5 ng/mL) | % | 7.29 |
| CCOc1cc2ncc(C#N)c(Nc3ccc(OCc4ccccn4)c(Cl)c3)c2cc1NC(=O)/C=C/CN(C)C [Neratinib] (max concentration tested 1000 nM) | normal primary NK cells, pool 3 (3 donors) (IL-2 2.5 ng/mL) | % | -1.66 |
| O=C1NC(=O)/C(=C/c2ccc3nccc(-c4ccncc4)c3c2)S1 (max concentration tested 10000 nM) | normal primary NK cells, pool 3 (3 donors) (IL-2 2.5 ng/mL) | % | 3.99 |
| CC(C)C[C@@H](C(=O)N[C@H](C(=O)OC1CCCC1)c1ccccc1)[C@H](O)C(=O)NO [Tosedostat] (max concentration tested 10000 nM) | normal primary NK cells, pool 3 (3 donors) (IL-2 2.5 ng/mL) | % | -19.6 |
| CN(C)C(=O)c1cc2cnc(Nc3ccc(N4CCNCC4)cn3)nc2n1C1CCCC1 [Ribociclib] (max concentration tested 10000 nM) | normal primary NK cells, pool 3 (3 donors) (IL-2 2.5 ng/mL) | % | -4.43 |
| CC[C@]1(O)C[C@@H]2CN(CCc3c([nH]c4ccccc34)[C@@](C(=O)OC)(c3cc4c(cc3OC)N(C)[C@H]3[C@@](O)(C(=O)OC)[C@H](OC(C)=O)[C@]5(CC)C=CCN6CC[C@]43[C@@H]65)C2)C1 [Vinblastine] (max concentration tested 1000 nM) | normal primary NK cells, pool 3 (3 donors) (IL-2 2.5 ng/mL) | % | 12.3 |
| C[C@@H]1C[C@H]2O[C@@H]2/C=C\C=C\C(=O)Cc2c(Cl)c(O)cc(O)c2C(=O)O1 [Radicicol] (max concentration tested 10000 nM) | normal primary NK cells, pool 3 (3 donors) (IL-2 2.5 ng/mL) | % | -10.4 |

* * *

Collected percent inhibition of viability values appear next to each entry.
tested on: normal primary NK cells, pool 3 (3 donors) (IL-2 2.5 ng/mL); assay: percent inhibition of viability; higher = more inhibition; details: 72 h; 1 nM

| compound | uom | percent inhibition of viability |
| --- | --- | --- |
| Cc1cnc(NC(=O)Nc2cc(Br)c(C)cc2OC[C@@H]2CNCCO2)cn1 [Rabusertib] (max concentration tested 1000 nM) | % | -8.02 |
| COc1cc([C@@H]2c3cc4c(cc3[C@@H](O[C@@H]3O[C@@H]5CO[C@@H](c6cccs6)O[C@H]5[C@H](O)[C@H]3O)[C@H]3COC(=O)[C@H]23)OCO4)cc(OC)c1O [Teniposide] (max concentration tested 10000 nM) | % | -13.8 |
| CC(=O)c1c(C)c2cnc(Nc3ccc(N4CCNCC4)cn3)nc2n(C2CCCC2)c1=O [Palbociclib] (max concentration tested 10000 nM) | % | -13.2 |
| COC(=O)c1ccc2c(c1)NC(=O)/C2=C(\Nc1ccc(N(C)C(=O)CN2CCN(C)CC2)cc1)c1ccccc1 [Nintedanib] (max concentration tested 10000 nM) | % | -18.1 |
| S=c1[nH]cnc2nc[nH]c12 [Mercaptopurine] (max concentration tested 10000 nM) | % | -16.8 |
| CN1CCN(c2cc(C(=O)Nc3ccc4c(c3)-c3c(c(C(N)=O)nn3-c3ccc(F)cc3)CC4)c(Cl)cn2)CC1 [PHA 408] (max concentration tested 10000 nM) | % | 1.98 |
| Cn1c(=O)c(F)c(Nc2ccc(I)cc2F)c2c(=O)n(C[C@@H](O)CO)cnc21 [TAK-733] (max concentration tested 1000 nM) | % | -14.4 |
| CO[C@H]1C[C@@H]2CC[C@@H](C)[C@@](O)(O2)C(=O)C(=O)N2CCCC[C@H]2C(=O)O[C@H]([C@H](C)C[C@@H]2CC[C@@H](OC(=O)C(C)(CO)CO)[C@H](OC)C2)CC(=O)[C@H](C)/C=C(\C)[C@@H](O)[C@@H](OC)C(=O)[C@H](C)C[C@H](C)/C=C/C=C/C=C/1C [Temsirolimus] (max concentration tested 100 nM) | % | 1.68 |
| C[C@@H]1C[C@H]2O[C@@H]2/C=C\C=C\C(=O)Cc2c(Cl)c(O)cc(O)c2C(=O)O1 [Radicicol] (max concentration tested 10000 nM) | % | -8.94 |
| O=C(Nc1ccc2[nH]nc(-c3ccncc3)c2c1)[C@@H]1CCN(CC(=O)N2CCN(c3ccc(-c4ncccn4)cc3)CC2)C1 (max concentration tested 10000 nM) | % | -13.2 |

* * *

test system: normal primary NK cells, pool 1 (3 donors), resting (IL-2 0 ng/mL); experiment: relative IC50 (inflection point of fitted viability curve, relative to fitted max inhibition); higher = less sensitive; conditions: 72 h
Collected relative IC50 values appear next to each entry.

| smiles_structure | relation_operator | relative IC50 (µM) |
| --- | --- | --- |
| C=CC(=O)Nc1cc2c(Nc3ccc(F)c(Cl)c3)ncnc2cc1OCCCN1CCOCC1 | = | 0.333 |
| C=CC[C@@H]1/C=C(\C)C[C@H](C)C[C@H](OC)[C@H]2O[C@@](O)(C(=O)C(=O)N3CCCC[C@H]3C(=O)O[C@H](/C(C)=C/[C@@H]3CC[C@@H](O)[C@H](OC)C3)[C@H](C)[C@@H](O)CC1=O)[C@H](C)C[C@@H]2OC | = | 1.62 |
| Nc1ncnc2c1nc(N)n2[C@@H]1O[C@H](CO)[C@@H](O)[C@H]1O | = | 13.1 |
| CN(c1ccccc1CNc1nc(Nc2ccc3c(c2)CC(=O)N3)ncc1C(F)(F)F)S(C)(=O)=O | = | 4.29 |
| COc1cc(Nc2ncc(F)c(Nc3ccc4c(n3)NC(=O)C(C)(C)O4)n2)cc(OC)c1OC | > | 10 |
| C[C@H]1C[C@@H]2[C@H]([C@@H](O)C[C@@]3(C)[C@H]2CC[C@]3(O)C(=O)CO)[C@@]2(C)C=CC(=O)C=C12 | = | 0.00966 |

* * *

tested on: KHYG-1 (IL-2 2.5 ng/mL); experiment: percent inhibition of viability; higher = more inhibition; details: 72 h; 10 nM
Collected percent inhibition of viability values appear next to each entry.
property_measured: percent inhibition of viability (%)

| molecule | reported_result |
| --- | --- |
| COc1cc(O)c2c(c1)/C=C/C[C@H](O)[C@H](O)C(=O)/C=C\C[C@H](C)OC2=O [(5Z)-7-Oxozeaenol] (max concentration tested 10000 nM) | -0.62 |
| COC(=O)C[C@](O)(CCCC(C)(C)O)C(=O)O[C@@H]1C(OC)=C[C@]23CCCN2CCc2cc4c(cc2[C@H]13)OCO4 [Omacetaxine] (max concentration tested 10000 nM) | -9.89 |
| CCn1c(-c2nonc2N)nc2c(C#CC(C)(C)O)ncc(OC[C@H]3CCCNC3)c21 (max concentration tested 10000 nM) | -0.24 |
